Exercise: for every item that follows, state its recorded pseudovirus neutralization IC50.
Biological target: SARS-COV-2 Spike, D614G (SARS-COV-2, UniProt P0DTC2 14-1273)
Assay: cell-based or functional assay
Numeric only. Scale: nM

Look at this binder and give its reported pseudovirus neutralization IC50. REGN14287 (antibody, V domains shown) VH: QVQLVQSGAEVKKPGSSVKVSCKASGGTFSNNAISWVRQAPGQGLEWMGKIIPILGIGGDAQKFQGRFTITADKSTSTAYMELSSLRSEDTAVYYCANSGDSRPHAFDIWGQGTMVTVSS VL: QSALTQPASVSGSPGQSITISCTGTSSDVGSYNLVSWYQQHPGKAPKLMIYEVSKRPSGVSNRFSGSKSGNTASLTISGLQAEDEADYYCSSYAGSRREVFGGGTKLTVL
0.0906

Look at this binder and give its reported pseudovirus neutralization IC50. REGN14315 (antibody, V domains shown) VH: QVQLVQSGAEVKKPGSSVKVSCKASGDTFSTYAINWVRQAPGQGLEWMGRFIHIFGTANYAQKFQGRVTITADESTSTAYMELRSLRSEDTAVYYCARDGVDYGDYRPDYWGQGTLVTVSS VL: EIVLTQSPGTLSLSPGERATLSCRASQSVSSNYLAWYQQKPGQAPRLLIYGASSRATGIPERFSGSGSGTDFTLTISRLEPEDFAVYYCQQYGSSLYTFGQGTKLEIK
0.00878

Look at this binder and give its reported pseudovirus neutralization IC50. REGN10933 (antibody, V domains shown) VH: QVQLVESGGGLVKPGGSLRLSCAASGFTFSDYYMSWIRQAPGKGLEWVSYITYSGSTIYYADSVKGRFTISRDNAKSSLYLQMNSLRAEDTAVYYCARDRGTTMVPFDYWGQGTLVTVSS VL: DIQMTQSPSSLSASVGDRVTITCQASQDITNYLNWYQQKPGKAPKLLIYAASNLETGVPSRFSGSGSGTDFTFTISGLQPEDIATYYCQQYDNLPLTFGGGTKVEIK
0.0291

Look at this binder and give its reported pseudovirus neutralization IC50. REGN14256 (antibody, V domains shown) VH: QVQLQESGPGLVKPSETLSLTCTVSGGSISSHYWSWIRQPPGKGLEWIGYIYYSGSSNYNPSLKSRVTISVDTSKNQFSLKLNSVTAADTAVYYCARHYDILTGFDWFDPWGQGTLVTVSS VL: QSVLTQPPSVSGAPGQRVTISCTGSSSNIGTHYDVHWYQQLPGTAPKLLIYGNSNRPSGVPDRFSGSKSGTSASLAITGLQAEDEADYYCQSFDNSLTAPYVFGTGTKVTVL
0.0114
